Value source: ChEMBL document CHEMBL1135897

- assayDetails: Half-life period for the hydrolysis to entacopone and […] was determined in a liver homogenate at pH 7.4.
- Format: ADME, tissue-based
valueKind: half-life (min)
Lab book: enter the figure in min, no units written.

Can you share its half-life? I mean this compound: `CCN(CC)C(=O)/C(C#N)=C/c1cc(OC(=O)N[C@@H](Cc2ccc(O)c(O)c2)C(=O)OC)c(O)c([N+](=O)[O-])c1`
7

====

- assayDetails: The half-life period, to be stable in the stomach and liver at pH 5.0, was determined
- Assay type: ADME, tissue-based
valueKind: half-life (h)
Lab book: enter the figure in h, no units written.

Can you share its half-life? I mean this compound: `CCN(CC)C(=O)/C(C#N)=C/c1cc(OC(=O)N[C@@H](Cc2ccc(O)c(O)c2)C(=O)OC)c(O)c([N+](=O)[O-])c1`
1.1
